B1: TPR 5TU (parent)
chain: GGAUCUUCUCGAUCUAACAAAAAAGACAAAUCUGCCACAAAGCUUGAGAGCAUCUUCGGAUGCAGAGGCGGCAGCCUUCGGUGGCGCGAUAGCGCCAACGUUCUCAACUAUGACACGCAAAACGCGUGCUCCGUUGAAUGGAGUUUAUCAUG

Variants of: B1
Test Protocol: polymerase ribozyme fitness, log enrichment relative to wild type (log ratio); higher = more active; in vitro selection for triplet polymerase activity
Fewer inactive variants are shown than the library holds.

{"Mutant Label": "U53G G59U C125U G141C", "Result Comparator": "=", "polymerase ribozyme fitness (log ratio)": -3.86}
{"Mutant Label": "A19G G84U", "Result Comparator": "=", "polymerase ribozyme fitness (log ratio)": -2.39}
{"Mutant Label": "A121G G141U C149U", "Result Comparator": "=", "polymerase ribozyme fitness (log ratio)": -3.72}
{"Mutant Label": "A20G G117A", "Result Comparator": "=", "polymerase ribozyme fitness (log ratio)": -0.0564}
{"Mutant Label": "U53A C85U G133C", "Result Comparator": "=", "polymerase ribozyme fitness (log ratio)": -2.22}
{"Mutant Label": "G62C G141C", "Result Comparator": "=", "polymerase ribozyme fitness (log ratio)": -0.741}
{"Mutant Label": "U6A A28G G59A C93U C99G C108A G140A G141U", "Result Comparator": "≤", "polymerase ribozyme fitness (log ratio)": -4.2}
{"Mutant Label": "G11U C38U G58C C96U A98G", "Result Comparator": "=", "polymerase ribozyme fitness (log ratio)": -1.45}
{"Mutant Label": "C35A U134C", "Result Comparator": "=", "polymerase ribozyme fitness (log ratio)": -3.61}
{"Mutant Label": "A3G U33C G58C C116G U139A G141U U146C", "Result Comparator": "≤", "polymerase ribozyme fitness (log ratio)": -4.2}
{"Mutant Label": "A52U C123G", "Result Comparator": "=", "polymerase ribozyme fitness (log ratio)": -1.97}
{"Mutant Label": "C32G G59A G83A A98C A110G", "Result Comparator": "=", "polymerase ribozyme fitness (log ratio)": -4.09}
{"Mutant Label": "C43G U55A C96A A98C A121U", "Result Comparator": "≤", "polymerase ribozyme fitness (log ratio)": -4.2}
{"Mutant Label": "U31C C93U A120G", "Result Comparator": "=", "polymerase ribozyme fitness (log ratio)": 0.174}
{"Mutant Label": "U53G G92C C93A", "Result Comparator": "≤", "polymerase ribozyme fitness (log ratio)": -4.2}
{"Mutant Label": "G59A C99G", "Result Comparator": "=", "polymerase ribozyme fitness (log ratio)": -1.14}
{"Mutant Label": "U9G U44G G50A U82C C95U U139G", "Result Comparator": "≤", "polymerase ribozyme fitness (log ratio)": -4.2}
{"Mutant Label": "A26C G94A C131U", "Result Comparator": "=", "polymerase ribozyme fitness (log ratio)": -1.51}
{"Mutant Label": "C54G A89U A147C", "Result Comparator": "=", "polymerase ribozyme fitness (log ratio)": -2.1}
{"Mutant Label": "G11U G42C G68A C85U G128U C132G U139G U148A", "Result Comparator": "≤", "polymerase ribozyme fitness (log ratio)": -4.2}
{"Mutant Label": "C57G C125A", "Result Comparator": "=", "polymerase ribozyme fitness (log ratio)": -0.508}
{"Mutant Label": "A20U A26U A29U G46A A49C A106U", "Result Comparator": "≤", "polymerase ribozyme fitness (log ratio)": -4.2}
{"Mutant Label": "U53C", "Result Comparator": "=", "polymerase ribozyme fitness (log ratio)": -0.375}
{"Mutant Label": "A30C G46U G94U G143A", "Result Comparator": "≤", "polymerase ribozyme fitness (log ratio)": -4.2}
{"Mutant Label": "A107G G141A", "Result Comparator": "=", "polymerase ribozyme fitness (log ratio)": -2.72}
{"Mutant Label": "G100A", "Result Comparator": "=", "polymerase ribozyme fitness (log ratio)": -3.76}
{"Mutant Label": "A52C C57U", "Result Comparator": "=", "polymerase ribozyme fitness (log ratio)": -1.24}
{"Mutant Label": "A22U A150C", "Result Comparator": "=", "polymerase ribozyme fitness (log ratio)": -2.85}
{"Mutant Label": "U31G G50U U56G", "Result Comparator": "=", "polymerase ribozyme fitness (log ratio)": -1.97}
{"Mutant Label": "A19G A41C G59A G62A A73U C118G A150U", "Result Comparator": "≤", "polymerase ribozyme fitness (log ratio)": -4.2}
{"Mutant Label": "A40C A49U A52U A60G G83U", "Result Comparator": "≤", "polymerase ribozyme fitness (log ratio)": -4.2}
{"Mutant Label": "A12G C27A U31G C35G C85A A97C C99G C149A", "Result Comparator": "≤", "polymerase ribozyme fitness (log ratio)": -4.2}
{"Mutant Label": "C54U U135A G136C", "Result Comparator": "=", "polymerase ribozyme fitness (log ratio)": -3.76}
{"Mutant Label": "G50A U55A A91U U135C", "Result Comparator": "≤", "polymerase ribozyme fitness (log ratio)": -4.2}
{"Mutant Label": "A49C U145G", "Result Comparator": "≤", "polymerase ribozyme fitness (log ratio)": -4.2}
{"Mutant Label": "G84U G117U A121G", "Result Comparator": "=", "polymerase ribozyme fitness (log ratio)": -1.75}
{"Mutant Label": "C5A G94U C95A C123A U135C", "Result Comparator": "=", "polymerase ribozyme fitness (log ratio)": -3.89}
{"Mutant Label": "A41U G140A", "Result Comparator": "=", "polymerase ribozyme fitness (log ratio)": -3.78}
{"Mutant Label": "A20C A39U G42A A91U G133U", "Result Comparator": "≤", "polymerase ribozyme fitness (log ratio)": -4.2}
{"Mutant Label": "G80A G92U", "Result Comparator": "=", "polymerase ribozyme fitness (log ratio)": -3.2}
{"Mutant Label": "C54U C79U A115G A120G A122U G141U", "Result Comparator": "≤", "polymerase ribozyme fitness (log ratio)": -4.2}
{"Mutant Label": "C72G A147U", "Result Comparator": "=", "polymerase ribozyme fitness (log ratio)": -3.16}
{"Mutant Label": "G50A G128U", "Result Comparator": "=", "polymerase ribozyme fitness (log ratio)": -3.21}
{"Mutant Label": "C76U C93U C105U", "Result Comparator": "=", "polymerase ribozyme fitness (log ratio)": -0.938}
{"Mutant Label": "C87U C129G", "Result Comparator": "=", "polymerase ribozyme fitness (log ratio)": -2.63}
{"Mutant Label": "A22U C96U", "Result Comparator": "=", "polymerase ribozyme fitness (log ratio)": 0.237}
